Target: biotinylated human Gal-3 (hGal-3) (Homo sapiens)
Sequence (P17931 whole entry): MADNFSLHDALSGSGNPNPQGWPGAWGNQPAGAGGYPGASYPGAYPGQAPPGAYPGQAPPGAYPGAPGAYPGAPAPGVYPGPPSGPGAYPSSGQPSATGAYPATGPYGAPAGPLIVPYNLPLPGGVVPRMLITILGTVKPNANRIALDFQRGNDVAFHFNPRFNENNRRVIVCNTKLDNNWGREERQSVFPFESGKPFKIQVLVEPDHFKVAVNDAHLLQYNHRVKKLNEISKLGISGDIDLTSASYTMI
Assay: Competitive binding assay: biotinylated hGal-3 binding to microplate-adsorbed asialofetuin (ASF), spectrophotometric
Conditions: Gal-3 inhibition, Table 5; read-out: IC50
Under this convention, YES denotes IC50 strictly below 0.06 µM and NO denotes IC50 at or above 0.06 µM.

>  <MOLECULE>
CN(C(=O)C(S[C@@H]1O[C@H](CO)[C@H](O)[C@H](n2cc(-c3cc(F)c(F)c(F)c3)nn2)[C@H]1O)C1(O)CCC(F)(F)CC1)C1CC1 (some centres unmarked) [Example 2.44.221.]

>  <CLASS NAME>
YES

$$$$
>  <MOLECULE>
CN(CC(C)(C)F)C(=O)[C@H](S[C@@H]1O[C@H](CO)[C@H](O)[C@H](n2cc(-c3cc(F)c(F)c(F)c3)nn2)[C@H]1O)C1(O)CCC1 [Example 2.34.222R.]

>  <CLASS NAME>
NO

$$$$
>  <MOLECULE>
CN(C(=O)[C@@H](S[C@@H]1O[C@H](CO)[C@H](O)[C@H](n2cc(-c3cc(F)c(F)c(F)c3)nn2)[C@H]1O)C1(O)CCOCC1)C1COC1 [Example 2.41.235S.]

>  <CLASS NAME>
YES

$$$$
>  <MOLECULE>
CN(CC1CC1)C(=O)C(S[C@@H]1O[C@H](CO)[C@H](O)[C@H](n2cc(-c3cc(F)c(F)c(F)c3)nn2)[C@H]1O)C1(O)CCC1 (some centres unmarked) [Example 2.34.218.]

>  <CLASS NAME>
NO

$$$$

----------
Target: UniProtKB P17931
Experiment: Competitive binding assay: biotinylated hGal-3 binding to microplate-adsorbed asialofetuin (ASF), spectrophotometric
Conditions: Gal-3 inhibition, Table 5; read-out: IC50
pIC50: −log10 of the molar value.
Reported pIC50 is given for each of the following molecules.

>  <MOLECULE>
CN(CCC(C)(C)C)C(=O)C(S[C@@H]1O[C@H](CO)[C@H](O)[C@H](n2cc(-c3cc(F)c(F)c(F)c3)nn2)[C@H]1O)C1(O)CCC(F)(F)CC1 (some centres unmarked) [Example 2.44.225.]

>  <pIC50>
7.15

$$$$
>  <MOLECULE>
CN(CC(C)(C)C)C(=O)C(S[C@@H]1O[C@H](CO)[C@H](O)[C@H](n2cc(-c3cc(F)c(F)c(F)c3)nn2)[C@H]1O)C1(O)CCC1 (some centres unmarked) [Example 2.34.228.]

>  <pIC50>
6.51

$$$$
>  <MOLECULE>
CCN(C)C(=O)C(S[C@@H]1O[C@H](CO)[C@H](O)[C@H](n2cc(-c3cc(F)c(F)c(F)c3)nn2)[C@H]1O)C1(O)CCCCC1 (some centres unmarked) [Example 2.39.203.]

>  <pIC50>
7.15

$$$$
>  <MOLECULE>
O=C([C@H](S[C@@H]1O[C@H](CO)[C@H](O)[C@H](n2cc(-c3cc(F)c(F)c(F)c3)nn2)[C@H]1O)C1(O)CCC1)N1CCCCC1 [Example 2.34.208R.]

>  <pIC50>
5.49

$$$$
>  <MOLECULE>
CCN(C)C(=O)[C@H](S[C@@H]1O[C@H](CO)[C@H](O)[C@H](n2cc(-c3cc(F)c(F)c(F)c3)nn2)[C@H]1O)C1(O)CCC1 [Example 2.34.203R.]

>  <pIC50>
5.45

$$$$
